target: RAC1 (Homo sapiens, UniProt P63000)
RECORDED_ENDPOINT: pKd
In textbook form, pKd equals minus log to base ten of the concentration in mol/L.

Any idea what its pKd is? The compound is COc1ccc(OC)c(NS(=O)(=O)c2ccc(NC(=O)CCSc3ccc(C)cc3)cc2)c1 [Compound A41] 7.52

// data source = paper PMC12281424
